The reported measurements were obtained from patent US20190040106A1.

- Tested on: THP-1 or HT-1080 cells
- ASSAY_PROTOCOL: CellTiter-Blue Cell Viability Assay, toxicity profile of peptides
- EXPERIMENTAL_CONTEXT: about 20 h exposure
Ends that are not written are not given here.
OUTCOME_MEASURE: Toxicity yes/no at the 300 μM conc.

1) LQNRRGLGLSILLNEE [SG#13] | No
2) LQNRRGLGLSILLNEECEEGPGPGP (Possibly HERV) [SG#2] | No
3) LQNKKGLGLSILLNEECGPGPGP (Possibly HERV) [SG#9] | No
4) LQNKRGLGLSILLNEECGPGPGP (Possibly HERV) [SG#8] | No
5) LQNRRGLLQNRRGLGLSILLNEE (Possibly HERV) [SG#15] | No
6) LQNRRGLGLSILLNEELQNRRGLC (Possibly HERV) [SG#12] | No
7) LQNRRGLGLSILLNEECGPGPGP [SG#17] (Possibly HERV) | No
8) LNRKAIGLSILLNEECGPGPGP (Possibly HERV) [SG#6] | No
9) LQNRRGLGLSILLNEECGPKK (Possibly HERV) [SG#11] | No
